Target: T1, recombinant human PD-1 Fc chimera (human, UniProt Q15116 25-167)
T1 construct: Bought (R&D 1086-PD); Labelled with europium cryptate in the PD-L2 HTRF assay; also called human PD-1 (R&D Systems cat no. 1086-PD); human PD-1-huFc; not shown: human Fc of the bought chimera
T1 sequence (Q15116 25-167, change not shown): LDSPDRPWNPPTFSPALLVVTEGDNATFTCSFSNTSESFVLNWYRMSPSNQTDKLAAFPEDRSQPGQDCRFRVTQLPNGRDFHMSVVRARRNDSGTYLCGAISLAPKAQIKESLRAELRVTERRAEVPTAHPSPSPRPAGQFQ
Assay: SPR (Biacore T200), PD-1-huFc amine-coupled to CM5, single cycle kinetics, 1:1 fit
parameter: kon (M⁻¹ s⁻¹)
Provide only the numeric value, understood in M⁻¹ s⁻¹.

kon recorded for this binder, Humabody VH 1.26 (VHH, human VH single domain antibody) VHH: EVQLVESGGGLVQPGRSLRLSCAASGFTFDDYAMHWVRQAPGKDLEWVSGISWNGGSMGYADSVKGRFTISRDNAKNSLYLQMNSLRAEDTALYYCVREKGPGLTGSTADYYGLDAWGQGTMVTVSS , is 265000

kon recorded for this binder, Humabody VH 1.39 (VHH, human VH single domain antibody) VHH: EVQLVESGGGLVQPGRSLRLSCAASGFTFDDYALHWVRQAPGKDLEWVSGISWNGGSYGYADSVKGRFTISRDNAKNSLYLQMNSLRAEDTALYYCVREKGPGLTGSTADYYGLDAWGQGTMVTVSS , is 316000

kon recorded for this binder, Humabody VH 1.44 (VHH, human VH single domain antibody) VHH: EVQLVESGGGLVQPGRSLRLSCAASGFTFDDYALHWVRQAPGKDLEWVSGISWNSGSYGYADSVKGRFTISRDNAKNSLYLQMNSLRAEDTALYYCVREKGPGLTGSTADYYGLDAWGQGTMVTVSS , is 224000

kon recorded for this binder, Humabody VH 1.40 (VHH, human VH single domain antibody) VHH: EVQLVESGGGLVQPGRSLRLSCAASGFTFDDYALHWVRQAPGKDLEWVSGISWNGGSQGYADSVKGRFTISRDNAKNSLYLQMNSLRAEDTALYYCVREKGPGLTGSTADYYGLDAWGQGTMVTVSS , is 243000
